For each of the compounds below, state its IC50.
System: Lu1
Assay: Cytotoxicity against human Lu1 cells assessed as growth inhibition after 72 hrs by neutral red staining based colorimetric assay
Type: functional, cell-based
Settings: Lu1, 72 h
Answers are plain numbers, in nM.

Batch request: IC50 for each of the following compounds.
1. Cc1c2ccncc2c(C)c2c1[nH]c1ccccc12
2. C=CC(=C)CC[C@]1(C)[C@H](C)C[C@H](O)[C@@]23C(=C[C@H](OC(=O)CCC)C[C@@H]12)[C@@H](OC(C)=O)O[C@H]3OC(C)=O

Solution:
[1200, 900]

* * *

For each of the molecules below, state its pIC50.
Experiment: Cytotoxicity against mouse NIH/3T3 cells assessed as growth inhibition after 72 hrs by neutral red staining based colorimetric assay
Format: cell-based
Conditions: NIH3T3, 72 h
Numbers only, as −log10 of the molar value.

Cc1c2ccncc2c(C)c2c1[nH]c1ccccc12 [ELLIPTECINE]	5.89

// moving on: another record for pIC50
Problem: Kindly indicate its recorded pIC50. Item: C=CC(=C)CC[C@]1(C)[C@H](C)C[C@H](O)[C@@]23C(=C[C@H](OC(=O)CCC)C[C@@H]12)[C@@H](OC(C)=O)O[C@H]3OC(C)=O [CASEANIGRESCEN D]
Solution: 6.52
